System: E. coli
procedure.text: Minimum Bactericidal Concentration (MBC) assay (CAMHB)
Assay type: cell-based, Escherichia coli
experimental.parameters: Table 4, all ΔΔ- enantiomers
Experimental: Further MIC assays and Minimum Bactericidal Concentration (MBC) assays were conducted against Gram-positive and Gram-negative bacterial strains using symmetric and non-symmetric, inert and labile complexes.
Reported MBC E. coli values are given for each entry in this list.
Kindly provide the numeric value in µg/mL only, without the unit symbol.

# annotated cases, reported MBC E. coli shown
Cc1cc[n+]2c(c1)-c1cc(CCCCCCCc3cc[n+]4c(c3)-c3cc(C)cc[n+]3[Ru-4]435([n+]4cccc6ccc7ccc[n+]3c7c64)[n+]3cccc4ccc6ccc[n+]5c6c43)cc[n+]1[Ru-4]213([n+]2cccc4ccc5ccc[n+]1c5c42)[n+]1cccc2ccc4ccc[n+]3c4c21.F[P-](F)(F)(F)(F)F.F[P-](F)(F)(F)(F)F.F[P-](F)(F)(F)(F)F.F[P-](F)(F)(F)(F)F [Rubb7, [{Ru(phen)2}2(μ-bb7)](PF6)4]; 16
Cc1cc[n+]2c(c1)-c1cc(CCCCCCCc3cc[n+]4c(c3)-c3cc(C)cc[n+]3[Ru-4]435([n+]4cccc6ccc7ccc[n+]3c7c64)[n+]3cccc4ccc6ccc[n+]5c6c43)cc[n+]1[Ru-4]213([Cl])[n+]2ccccc2-c2cccc([n+]21)-c1cccc[n+]13 [Ru(μ-bb7)Ru—Cl, [Ru(phen)2(μ-bb7)Ru(terpy)Cl]]; 1

Lab note: next molecule to report on.
[ask] Provide measured MBC E. coli on E. coli for Cc1cc[n+]2c(c1)-c1cc(CCCCCCCCCCCCc3cc[n+]4c(c3)-c3cc(C)cc[n+]3[Ru-4]435([Cl])[n+]4ccccc4-c4cccc([n+]43)-c3cccc[n+]35)cc[n+]1[Ru-4]213([Cl])[n+]2ccccc2-c2cccc([n+]21)-c1cccc[n+]13.F[P-](F)(F)(F)(F)F.F[P-](F)(F)(F)(F)F [Rubb12-Cl, [{Ru(terpy)(Cl)}2(μ-bb12)](PF6)2] please.
[reply] 2

----------
Type: physicochemical
experimental.parameters: pH 7.4
# note: boundary value -3 maps to false; logP below it maps to true

Record excerpt, results attached:
Cc1cc[n+]2c(c1)-c1cc(CCc3cc[n+]4c(c3)-c3cc(C)cc[n+]3[Ru-4]435([n+]4cccc6ccc7ccc[n+]3c7c64)[n+]3cccc4ccc6ccc[n+]5c6c43)cc[n+]1[Ru-4]213([n+]2cccc4ccc5ccc[n+]1c5c42)[n+]1cccc2ccc4ccc[n+]3c4c21 [Rubb2, [{Ru(phen)2}2(μ-bb2)]^4+]; true
Cc1ccnc(-c2cc(CCCCCCCc3cc[n+]4c(c3)-c3cc(C)cc[n+]3[Ru-4]435([n+]4cccc6ccc7ccc[n+]3c7c64)[n+]3cccc4ccc6ccc[n+]5c6c43)ccn2)c1 [Rubb7mono, Δ-[Ru(phen)2(bb7)]^2+]; false
Cc1ccnc(-c2cc(CCCCCCCCCCc3ccnc(-c4cc(C)ccn4)c3)ccn2)c1.F[P-](F)(F)(F)(F)F.F[P-](F)(F)(F)(F)F.F[P-](F)(F)(F)(F)F.F[P-](F)(F)(F)(F)F.[Ru+2].[Ru+2].c1cnc2c(c1)ccc1cccnc12.c1cnc2c(c1)ccc1cccnc12.c1cnc2c(c1)ccc1cccnc12.c1cnc2c(c1)ccc1cccnc12 [Rubb10, [{Ru(phen)2}2(μ-bb10)](PF6)4]; true
Cc1cc[n+]2c(c1)-c1cc(CCCCCCCCCCCCCCc3cc[n+]4c(c3)-c3cc(C)cc[n+]3[Ru-4]435([n+]4cccc6ccc7ccc[n+]3c7c64)[n+]3cccc4ccc6ccc[n+]5c6c43)cc[n+]1[Ru-4]213([n+]2cccc4ccc5ccc[n+]1c5c42)[n+]1cccc2ccc4ccc[n+]3c4c21.[Cl-].[Cl-].[Cl-].[Cl-] [Rubb14, [{Ru(phen)2}2(μ-bb14)]Cl4]; false
Cc1ccnc(-c2cc(CCCCCCCCCCCCCCCCc3ccnc(-c4cc(C)ccn4)c3)ccn2)c1.[Cl-].[Cl-].[Cl-].[Cl-].[Ru+2].[Ru+2].c1cnc2c(c1)ccc1cccnc12.c1cnc2c(c1)ccc1cccnc12.c1cnc2c(c1)ccc1cccnc12.c1cnc2c(c1)ccc1cccnc12 [Rubb16, [{Ru(phen)2}2(μ-bb16)]Cl4]; false

Now consider the entry below.
[ask] Hello, is logP of the following compound strictly smaller than -3? Cc1cc[n+]2c(c1)-c1cc(CCCCCCCc3cc[n+]4c(c3)-c3cc(C)cc[n+]3[Ru-4]435([n+]4cccc6ccc7ccc[n+]3c7c64)[n+]3cccc4ccc6ccc[n+]5c6c43)cc[n+]1[Ru-4]213([n+]2cccc4ccc5ccc[n+]1c5c42)[n+]1cccc2ccc4ccc[n+]3c4c21.F[P-](F)(F)(F)(F)F.F[P-](F)(F)(F)(F)F.F[P-](F)(F)(F)(F)F.F[P-](F)(F)(F)(F)F [Rubb7, [{Ru(phen)2}2(μ-bb7)](PF6)4]
[reply] true

----------
Test system: E. coli ATCC 25922
procedure.text: MIC determination, broth micro-dilution (CAMHB)
Format: cell-based, Escherichia coli
experimental.parameters: Table 4; CAMHB; all ΔΔ- enantiomers
Reported MIC E. coli values are given for each entry in this list.
Please state the value as a number alone, without comment.

# annotated cases, reported MIC E. coli shown
Cc1cc[n+]2c(c1)-c1cc(CCCCCCCc3cc[n+]4c(c3)-c3cc(C)cc[n+]3[Ru-4]435([n+]4cccc6ccc7ccc[n+]3c7c64)[n+]3cccc4ccc6ccc[n+]5c6c43)cc[n+]1[Ru-4]213([Cl])[n+]2ccccc2-c2cccc([n+]21)-c1cccc[n+]13 [Ru(μ-bb7)Ru—Cl, [Ru(phen)2(μ-bb7)Ru(terpy)Cl]]; 1
Cc1cc[n+]2c(c1)-c1cc(CCCCCCCCCCCCc3cc[n+]4c(c3)-c3cc(C)cc[n+]3[Ru-4]435([Cl])[n+]4ccccc4-c4cccc([n+]43)-c3cccc[n+]35)cc[n+]1[Ru-4]213([Cl])[n+]2ccccc2-c2cccc([n+]21)-c1cccc[n+]13.F[P-](F)(F)(F)(F)F.F[P-](F)(F)(F)(F)F [Rubb12-Cl, [{Ru(terpy)(Cl)}2(μ-bb12)](PF6)2]; 2
Cc1cc[n+]2c(c1)-c1cc(CCCCCCCc3cc[n+]4c(c3)-c3cc(C)cc[n+]3[Ru-4]435([n+]4cccc6ccc7ccc[n+]3c7c64)[n+]3cccc4ccc6ccc[n+]5c6c43)cc[n+]1[Ru-4]213([n+]2cccc4ccc5ccc[n+]1c5c42)[n+]1cccc2ccc4ccc[n+]3c4c21.F[P-](F)(F)(F)(F)F.F[P-](F)(F)(F)(F)F.F[P-](F)(F)(F)(F)F.F[P-](F)(F)(F)(F)F [Rubb7, [{Ru(phen)2}2(μ-bb7)](PF6)4]; 16

Lab note: next compound to report on.
[ask] Return reported MIC E. coli. Input compound: Cc1ccnc(-c2cc(CCCCCCCCCCCCCCCCc3ccnc(-c4cc(C)ccn4)c3)ccn2)c1.[Cl-].[Cl-].[Cl-].[Cl-].[Ru+2].[Ru+2].c1cnc2c(c1)ccc1cccnc12.c1cnc2c(c1)ccc1cccnc12.c1cnc2c(c1)ccc1cccnc12.c1cnc2c(c1)ccc1cccnc12 [Rubb16, [{Ru(phen)2}2(μ-bb16)]Cl4]
[reply] 2

----------
System: S. aureus ATCC 25923
procedure.text: MIC determination, broth micro-dilution (CAMHB)
Type: cell-based, Staphylococcus aureus
experimental.parameters: Table 1; 37° C., 24 h
Reported MIC S. aureus values are given for each entry in this list.
Kindly provide the numeric value in µg/mL only, without the unit symbol.

# annotated cases, reported MIC S. aureus shown
Cc1cc[n+]2c(c1)-c1cc(CCCCCCCc3cc[n+]4c(c3)-c3cc(C)cc[n+]3[Ru-4]435([n+]4cccc6ccc7ccc[n+]3c7c64)[n+]3cccc4ccc6ccc[n+]5c6c43)cc[n+]1[Ru-4]213([n+]2cccc4ccc5ccc[n+]1c5c42)[n+]1cccc2ccc4ccc[n+]3c4c21.F[P-](F)(F)(F)(F)F.F[P-](F)(F)(F)(F)F.F[P-](F)(F)(F)(F)F.F[P-](F)(F)(F)(F)F [ΛΛ-Rubb7, [{Ru(phen)2}2(μ-bb7)](PF6)4]; 64
Cc1cc[n+]2c(c1)-c1cc(CCCCCCCCCCCCCCc3cc[n+]4c(c3)-c3cc(C)cc[n+]3[Ru-4]435([n+]4cccc6ccc7ccc[n+]3c7c64)[n+]3cccc4ccc6ccc[n+]5c6c43)cc[n+]1[Ru-4]213([n+]2cccc4ccc5ccc[n+]1c5c42)[n+]1cccc2ccc4ccc[n+]3c4c21.[Cl-].[Cl-].[Cl-].[Cl-] [ΛΛ-Rubb14, [{Ru(phen)2}2(μ-bb14)]Cl4]; 1
Cc1ccnc(-c2cc(CCCCCCCc3cc[n+]4c(c3)-c3cc(C)cc[n+]3[Ru-4]435([n+]4cccc6ccc7ccc[n+]3c7c64)[n+]3cccc4ccc6ccc[n+]5c6c43)ccn2)c1 [Rubb7mono, Δ-[Ru(phen)2(bb7)]^2+]; 4

[ask] Provide measured MIC S. aureus on S. aureus ATCC 25923 for Cc1ccnc(-c2cc(CCCCCCCCCCc3ccnc(-c4cc(C)ccn4)c3)ccn2)c1.F[P-](F)(F)(F)(F)F.F[P-](F)(F)(F)(F)F.F[P-](F)(F)(F)(F)F.F[P-](F)(F)(F)(F)F.[Ru+2].[Ru+2].c1cnc2c(c1)ccc1cccnc12.c1cnc2c(c1)ccc1cccnc12.c1cnc2c(c1)ccc1cccnc12.c1cnc2c(c1)ccc1cccnc12 [ΔΔ-Rubb10, [{Ru(phen)2}2(μ-bb10)](PF6)4] please.
[reply] 4
